Tested on: SK-MEL-28 melanoma
Test: NCI tumour cell line growth inhibition, 48 h
Recorded Endpoint: TGI

Record excerpt, results attached:
O=C(/C=C1\N=C(c2ccccc2)N(c2ccc3c(c2)Sc2cc(N4C(=O)/C(=C/C(=O)/C=C/c5ccccc5)N=C4c4ccccc4)ccc2N3)C1=O)/C=C/c1ccccc1; > 100 µM
C[N+](C)(C)CCCCCc1c2nc(c(CCCCC[N+](C)(C)C)c3ccc([nH]3)c(CCCCC[N+](C)(C)C)c3ccc([nH]3)c(CCCCC[N+](C)(C)C)c3nc1C=C3)C=C2; > 100 µM
CCOC1NC(=O)Oc2ccccc21 (stereo not drawn); > 100 µM
COC(=O)c1oc2c(C(=O)/C=C/c3ccc(OC)cc3)c(OCCCN3CCCCC3)ccc2c1C; 2.33 µM
CCN(CC)P1(=S)Oc2ccc3ccccc3c2-c2c(ccc3ccccc23)O1; > 100 µM

Record O=C1NC(=NCCc2ccccc2Cl)S/C1=C\c1ccc2ncccc2c1 . Reported TGI: > 25 µM

Input CC(C)C[C@H](NC(=O)[C@@H](Cc1cccc2ccccc12)NC(=O)N1CCOCC1)B(O)O . Output TGI: 6.92 µM

TGI for CCCCCOP(=O)(OCCCCC)C(NC(C)=O)(C(=O)OCC)C(F)(F)F (stereo not drawn) is > 100 µM

* * *

System: UACC-62 melanoma
Assay: NCI tumour cell line growth inhibition, 48 h
Listing of recorded TGI by entry.
Just the number in µM, nothing appended.

CC(C)[C@]12O[C@H]1[C@@H]1O[C@]13[C@]1(O[C@H]1C[C@H]1c4c(C(=O)c5ccccc5)oc(OC(=O)c5ccccc5)c4CC[C@@]13C)[C@@H]2O; 0.0333

Data point: CC(C)(C)[Si](C)(C)OCC1OC(n2ccc(=O)[nH]c2=O)C(O[Si](C)(C)C(C)(C)C)/C1=N/O (stereo not given) ; TGI = 24.8

* * *

Test system: HL-60(TB) leukemia
Assay: NCI tumour cell line growth inhibition, 48 h; in the data active = GI50 below about 0.43 µM; inactive = the rest
# valid calls are active, inactive; nothing else

Cc1ccc(/C=C(\C#N)n2nnc3cc(F)c(F)cc32)cc1; inactive
COc1ccc(C(=O)Nc2cccc(C3CC(=O)c4c(cc(OC)c(OC)c4OC)O3)c2)cc1 (stereo not drawn); inactive
O=Nc1c(-c2cccc([N+](=O)[O-])c2)nc2ncccn12; inactive
CSC(=S)N/N=C(\C)c1ccccn1; active
COc1cc(/C=C/C(=O)c2ccc(Nc3nc(Nc4ccc(F)cc4)nc(Nc4ccc(F)cc4)n3)cc2)cc(OC)c1OC; inactive
N#C/C(=C/N1CCN(C(=O)c2ccco2)C1=S)C(N)=O; inactive
O=C1NC(=NCCc2ccccc2Cl)S/C1=C\c1ccc2ncccc2c1; inactive
COC(=O)c1c(-c2ccccc2)csc1NC(=O)c1c(-c2ccccc2)noc1C; inactive
O=C(Nc1ccccc1Cl)c1ccc(NC2=C(Cl)C(=O)N(Cc3ccccc3)C2=O)cc1; inactive
CC(CN(CP(=O)([O-])[O-])CP(=O)([O-])[O-])N(CP(=O)([O-])[O-])CP(=O)([O-])[O-].N[C@@H]1CCCC[C@@H]1N.[Pt+2] (stereo not drawn); inactive

I would be grateful if you could indicate the recorded call for N#Cc1c2ccccc2c2nnc3cc(Cl)c(Cl)cc3n12 .
inactive

# outcome recorded in this test, key = COc1cc(-c2ccc(-c3ccc(C(=N)N)s3)s2)cc(OC)c1OC
inactive

Give the logged outcome of this assay for the following compound: CCCCCCCCSC1=CC(=O)C(OC)=C(OC)C1=O
inactive

Give the logged outcome of this assay for the following compound: CN1CCN(c2ccc3nc(-c4ccc(OCCCN5C(=O)c6cccc7cccc(c67)C5=O)cc4)[nH]c3c2)CC1
inactive
